tested on: H3K18Ac in HB-CLS-2 cells; test: H3K18AC in-cell western (ICW) assay; format: cell-based; conditions: H3K18Ac in-cell western; read-out: CREBBP ICW IC50
pIC50: −log10 of the molar value.
metric: pIC50

Past entries and their recorded results:
> print(dat)
                         compound.structure          system.under.test  metric  assay.value
1  CCn1ncc(CN(C)C(=O)c2cc(-c3ccc(OCCNC)c(C)n3)nc3ccc(Cl)cc23)c1C  H3K18Ac in HB-CLS-2 cells   pIC50         6.71
2  CCn1ncc(CN(C)C(=O)c2cc(-c3csc(C)n3)nc3ccc(Cl)cc23)c1C  H3K18Ac in HB-CLS-2 cells   pIC50         5.80
3  CCn1ncc(CN(C)C(=O)c2nc(-c3cnc4c[nH]nc4c3)nc3ccc(Cl)cc23)c1C  H3K18Ac in HB-CLS-2 cells   pIC50         6.29

A: CCn1ncc(CN(C)C(=O)c2cc(-c3ccc(NC4CN(C)C4)c(C)n3)nc3ccc(Cl)cc23)c1C
B: CCn1ncc(CN(C)C(=O)c2nc(-c3cc(C)cc(NC4CCNCC4)c3)nc3ccc(Cl)cc23)c1C
C: CCn1ncc(CN(C)C(=O)c2cc(-c3ccc(NCCOC)c(C)n3)nc3ccc(Cl)cc23)c1C
D: CCn1ncc(CN(C)C(=O)c2cc(-c3ccc(NCCNC)nn3)nc3ccc(Cl)cc23)c1C
Arrange by pIC50, high to low. Write the labels in rank order as requested.
A, C, B, D
(A: 7.64, C: 6.90, B: 6.22, D: 5.40)

* * *

system: H3K18Ac in HB-CLS-2 cells; assay: H3K18AC in-cell western (ICW) assay; assay type: cell-based; details: H3K18Ac in-cell western; read-out: CREBBP ICW IC50
pIC50: −log10 of the molar value.
metric: pIC50

Past entries and their recorded results:
> print(dat)
                                   compound  assay.value
1  CCn1ncc(CN(C)C(=O)c2nc(-c3ccc(OCCO)cc3Cl)nc3ccc(Cl)cc23)c1C [Compound 32]         6.57
2  CCn1ncc(CN(C)C(=O)c2nc(-c3cc(NCCNC)cc(OC)c3)nc3ccc(Cl)cc23)c1C [Compound 5]         7.22

A: CCn1ncc(CN(C)C(=O)c2nc(-c3cc4n[nH]cc4cc3Cl)nc3ccc(Cl)cc23)c1C [Compound 7]
B: CCc1ncc(CN(C)C(=O)c2cc(-c3ccc(N(C)C4CN(C)C4)c(C)n3)nc3ccc(Cl)cc23)n1C [Compound 572]
C: CCn1ncc(CN(C)C(=O)c2nc(-c3cnn(CCCN(C)C(=O)OC(C)(C)C)c3)nc3ccc(Cl)cc23)c1C [Compound 188]
D: CCn1ncc(CN(C)C(=O)c2nc(-c3ccc(OCCCNC)c(OC)c3)nc3ccc(Cl)cc23)c1C [Compound 84]
Arrange by pIC50, high to low. Write the labels in rank order as requested.
A, B, D, C

* * *

system: H3K18Ac in HB-CLS-2 cells; experiment: H3K18AC in-cell western (ICW) assay; type: cell-based; settings: H3K18Ac in-cell western; read-out: CREBBP ICW IC50
pIC50: −log10 of the molar value.
metric: pIC50

Past entries and their recorded results:
> print(dat)
                                   compound          system.under.test  metric  assay.value
1  CCn1ncc(CN(C)C(=O)c2nc(-c3cc(C)nc(NCCNC)c3)nc3ccc(Cl)cc23)c1C  H3K18Ac in HB-CLS-2 cells   pIC50         7.11
2  CCCOc1ccc(-c2nc(C(=O)N(C)Cc3cnn(CC)c3C)c3cc(Cl)ccc3n2)cc1Cl  H3K18Ac in HB-CLS-2 cells   pIC50         5.02

1: CCc1noc(C(C)N(C)C(=O)c2nc(-c3cc4c(NC)[nH]nc4cc3C)nc3ccc(Cl)cc23)c1C (stereo not shown)
2: CCn1ncc(CN(C)C(=O)c2cc(-c3cc(C(=O)NC)n(C)n3)nc3ccc(Cl)cc23)c1C
3: CCn1ncc(CN(C)C(=O)c2nc(-c3ccc(OCCOC)c(Cl)c3)nc3ccc(Cl)cc23)c1C
4: CCn1ncc(CN(C)C(=O)c2cc(-c3cc(NC4CNC4)cc(C)n3)nc3ccc(Cl)cc23)c1C
5: CCn1ncc(CN(C)C(=O)c2nc(-c3cc(C(=O)NCCCN4CCCC4)n(Cc4ccc(OC)cc4)n3)nc3ccc(Cl)cc23)c1C
Ordering: ascending pIC50. Write the labels in rank order as requested.
5, 3, 1, 4, 2

* * *

tested on: H3K18Ac in HB-CLS-2 cells; assay: H3K18AC in-cell western (ICW) assay; format: cell-based; settings: H3K18Ac in-cell western; read-out: CREBBP ICW IC50
metric: IC50 (µM)

P: CCc1ncc(CN(C)C(=O)c2nc(-c3cc(Cl)cc(NCCNC)c3)nc3ccc(Cl)cc23)n1C
Q: CCn1ncc(C(=O)N(C)Cc2cc(-c3ccc(NCCNC)c(C)n3)nc3ccc(Cl)cc23)c1C
Which value of IC50 is numerically greater: that of P or that of Q ? Your answer should be the label of the entry you select.
Q

I: CCn1ncc(CN(C)C(=O)c2cc(-c3ccc(NCCN(C)C(=O)OC(C)(C)C)cn3)nc3ccc(Cl)cc23)c1C
II: CCn1ncc(CN(C)C(=O)c2nc(-c3cc(CN(C)Cc4ccc(OC)cc4)nn3C)nc3ccc(Cl)cc23)c1C
Please let me know which one, I or II , has a lower measured IC50 value. Your answer should be the label of the entry you select.
I

I: CCn1ncc(CN(C)C(=O)c2nc(-c3cc(C(=O)NCCN4CCCC4)n(Cc4ccc(OC)cc4)n3)nc3ccc(Cl)cc23)c1C
II: CCc1ncc(CN(C)C(=O)c2nc(-c3cc(C)cc(NC4CNC4)c3)nc3ccc(Cl)cc23)n1C
Which value of IC50 is numerically greater: that of I or that of II ? Your answer should be the label of the entry you select.
I

* * *

test system: H3K18Ac in HB-CLS-2 cells; experiment: H3K18AC in-cell western (ICW) assay; format: cell-based; conditions: H3K18Ac in-cell western; read-out: CREBBP ICW IC50
pIC50: −log10 of the molar value.
metric: pIC50

Past entries and their recorded results:
> print(dat)
                                   compound  assay.value
1  CCn1ncc(CN(C)C(=O)c2nc(-c3ccc4[nH]c(C)nc4c3)nc3ccc(Cl)cc23)c1C         6.47
2  CCn1ncc(CN(C)C(=O)c2nc(-c3ccc(OCCCNC(C)C)c(C)c3)nc3ccc(Cl)cc23)c1C         6.59
3  CCn1ncc(CN(C)C(=O)c2cc(-c3ccccn3)nc3ccc(Cl)cc23)c1C         5.77
4  CCn1ncc(CN(C)C(=O)c2cc(-c3ccccc3)nc3ccc(Cl)cc23)c1C         5.21
5  CCn1ncc(CN(C)C(=O)c2cc(-c3ccnc(N)c3)nc3ccc(Cl)cc23)c1C         5.77
6  CCn1ncc(CN(C)C(=O)c2cc(-c3cc(-c4ncc[nH]4)n(C)n3)nc3ccc(COC)cc23)c1C         6.89
7  CCn1ncc(CN(C)C(=O)c2cc(-n3cc4c(n3)CNCC4)nc3ccc(Cl)cc23)c1C         4.89
8  CCc1noc(CN(C)C(=O)c2cc(-c3ccc(NC4CN(C)C4)c(C)n3)nc3ccc(Cl)cc23)c1C         7.27

P: CCn1ncc(CN(C)C(=O)c2cc(-c3ccc(NCCN(C)C)c(C(F)(F)F)n3)nc3ccc(Cl)cc23)c1C
Q: CCn1ncc(CN(C)C(=O)c2cc(-c3cnc[nH]3)nc3ccc(Cl)cc23)c1C
R: CCn1ncc(CN(C)C(=O)c2nc(-c3cc(C)c(OCCCNC)c(NC)c3)nc3ccc(Cl)cc23)c1C
S: CCn1ncc(CN(C)C(=O)c2cc(-c3cccc(Cl)c3)nc3ccc(C)cc23)c1C
T: CCn1ncc(CN(C)C(=O)c2cc(-c3ccccc3F)nc3ccc(Cl)cc23)c1C
Arrange by pIC50, high to low. Write the labels in rank order as requested.
P, Q, T, S, R
(P: 7.22, Q: 6.35, T: 5.89, S: 5.37, R: 4.89)

A: CCn1ncc(CN(C)C(=O)c2cc(-c3ccc(NC(=O)CNC)c(C)n3)nc3ccc(Cl)cc23)c1C
B: CCn1ncc(CN(C)C(=O)c2cc(-c3ccc(NC4CCNC4)c(C)n3)nc3ccc(Cl)cc23)c1C (stereo not shown)
Which value of pIC50 is numerically greater: that of A or that of B ? Your answer should be the label of the entry you select.
B
